Kd listing for selected compounds.
Target sequence: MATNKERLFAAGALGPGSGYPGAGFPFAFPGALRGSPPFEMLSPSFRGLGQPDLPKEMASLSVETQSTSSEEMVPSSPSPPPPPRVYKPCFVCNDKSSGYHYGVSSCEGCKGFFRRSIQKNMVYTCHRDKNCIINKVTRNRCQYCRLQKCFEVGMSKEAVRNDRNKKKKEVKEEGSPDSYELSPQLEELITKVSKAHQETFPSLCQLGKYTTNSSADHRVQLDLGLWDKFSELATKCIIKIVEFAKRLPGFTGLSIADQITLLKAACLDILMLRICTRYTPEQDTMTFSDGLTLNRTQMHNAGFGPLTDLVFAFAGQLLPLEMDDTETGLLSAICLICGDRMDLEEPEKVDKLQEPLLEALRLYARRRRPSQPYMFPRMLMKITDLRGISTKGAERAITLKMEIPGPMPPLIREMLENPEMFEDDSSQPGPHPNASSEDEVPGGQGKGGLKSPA
result.type: Kd (µM)

Cc1ccc(C2=CC(C)(C)Oc3c(Br)cc(C(=O)Nc4ccc(C(=O)O)c(F)c4)cc32)cc1    7.26
Cc1ccc(C2=CCC(C)(C)c3ccc(C(=O)Nc4ccc(C(=O)O)cc4)cc32)cc1    3.12
Cc1ccc(C2=CC(C)(C)Oc3c(Br)cc(C(=O)Nc4cc(F)c(C(=O)O)c(F)c4)cc32)cc1    10.6

----------
assay.target: Retinoic acid receptor alpha (Homo sapiens, UniProt P10276)
Sequence (P10276 whole entry): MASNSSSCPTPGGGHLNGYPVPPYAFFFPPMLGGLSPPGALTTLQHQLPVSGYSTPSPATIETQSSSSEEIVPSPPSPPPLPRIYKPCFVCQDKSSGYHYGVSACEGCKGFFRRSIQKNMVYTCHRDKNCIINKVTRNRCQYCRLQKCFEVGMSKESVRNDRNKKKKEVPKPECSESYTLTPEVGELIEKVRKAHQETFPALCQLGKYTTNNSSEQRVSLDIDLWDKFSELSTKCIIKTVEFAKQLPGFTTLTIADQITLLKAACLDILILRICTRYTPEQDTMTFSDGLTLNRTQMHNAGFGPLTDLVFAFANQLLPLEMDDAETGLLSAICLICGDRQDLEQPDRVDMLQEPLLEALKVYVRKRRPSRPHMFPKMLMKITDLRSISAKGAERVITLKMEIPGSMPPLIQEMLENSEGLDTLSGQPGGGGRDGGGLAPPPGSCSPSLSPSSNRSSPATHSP
pKd: −log10 of the molar value.
result.type: pKd

Cc1ccc(C2=CC(C)(C)Oc3c(Br)cc(C(=O)Nc4ccc(C(=O)O)c(F)c4)cc32)cc1    8.55
Cc1ccc(C2=CCC(C)(C)c3ccc(C(=O)Nc4ccc(C(=O)O)cc4)cc32)cc1    7.57

----------
Catalogue of compounds with associated pKd
Sequence of the target: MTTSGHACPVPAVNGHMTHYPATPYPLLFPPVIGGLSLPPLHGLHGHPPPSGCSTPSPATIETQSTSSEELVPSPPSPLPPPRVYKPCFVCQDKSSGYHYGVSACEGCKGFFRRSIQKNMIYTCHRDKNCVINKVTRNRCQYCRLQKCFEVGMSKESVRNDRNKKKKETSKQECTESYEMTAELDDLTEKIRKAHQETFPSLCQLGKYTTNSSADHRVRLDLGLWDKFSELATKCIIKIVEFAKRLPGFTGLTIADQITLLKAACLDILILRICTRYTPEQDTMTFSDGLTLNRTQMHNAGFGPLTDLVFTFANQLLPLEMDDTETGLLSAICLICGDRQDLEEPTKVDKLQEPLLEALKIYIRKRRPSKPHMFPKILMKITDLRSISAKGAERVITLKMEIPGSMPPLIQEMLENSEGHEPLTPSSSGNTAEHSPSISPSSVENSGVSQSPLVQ
pKd: −log10 of the molar value.
result.type: pKd

Cc1ccc(C2=CCC(C)(C)c3ccc(C(=O)Nc4cc(F)c(C(=O)O)c(F)c4)cc32)cc1    5.65
Cc1ccc(C2=CC(C)(C)Oc3c(Br)cc(C(=O)Nc4cc(F)c(C(=O)O)c(F)c4)cc32)cc1    6.05
